Origin of values: patent US20180094053A1

target or system: T1, Rabbit IL-2 (rabbit, UniProt O77620 21-153, limits assumed)
T1 sequence (looked up): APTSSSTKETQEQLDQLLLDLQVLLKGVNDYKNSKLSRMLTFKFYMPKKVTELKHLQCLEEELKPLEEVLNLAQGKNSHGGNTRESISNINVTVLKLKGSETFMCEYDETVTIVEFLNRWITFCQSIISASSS
protocol summary: SPR (Biacore 4000), IgG captured on anti-human IgG Fc, IL-2 30 nM to 1 nM; affinity estimate
parameter measured: pKd
Remember the convention: pKd equals -log10 of concentration in molar.

Inquiry: Consider the binder XPA.92.042 (antibody, V domains shown, Tested as purified full-length human IgG) VH: EVQLVQSGTEVKKAGDSLKISCKGSGYNFDTYWIGWVRQMPGRGLEWMGTIYPADSDTRYSPSFQGQVTMSADKSISTAYLQWGSLRASDTAMYYCARFSSSAYDIWGQGTMVTVSS VL: SYELTQPPSVSVSPGQTARITCSGDALPRKFAYWYQQKSGQAPVLVIYQDTKRPSGIPERFSGSSSGTTVTLTISDVQAEDDADYYCQSADRSDSYVFGAGTKLTVLG and give its recorded pKd.
Reply text: 9.22
